biological target: human TRPV4 (Homo sapiens, UniProt Q9HBA0); construct: host or cells: tetracycline-inducible Flp-In T-REx 293 cells; test: Hypotonicity-induced Ca2+ influx (Fluo-4, FDSS); type: cell-based; conditions: Flp-In T-REx 293 cells expressing human TRPV4, examples listed under heading 'Human IC50<50 nM'
Sequence (Q9HBA0 whole entry): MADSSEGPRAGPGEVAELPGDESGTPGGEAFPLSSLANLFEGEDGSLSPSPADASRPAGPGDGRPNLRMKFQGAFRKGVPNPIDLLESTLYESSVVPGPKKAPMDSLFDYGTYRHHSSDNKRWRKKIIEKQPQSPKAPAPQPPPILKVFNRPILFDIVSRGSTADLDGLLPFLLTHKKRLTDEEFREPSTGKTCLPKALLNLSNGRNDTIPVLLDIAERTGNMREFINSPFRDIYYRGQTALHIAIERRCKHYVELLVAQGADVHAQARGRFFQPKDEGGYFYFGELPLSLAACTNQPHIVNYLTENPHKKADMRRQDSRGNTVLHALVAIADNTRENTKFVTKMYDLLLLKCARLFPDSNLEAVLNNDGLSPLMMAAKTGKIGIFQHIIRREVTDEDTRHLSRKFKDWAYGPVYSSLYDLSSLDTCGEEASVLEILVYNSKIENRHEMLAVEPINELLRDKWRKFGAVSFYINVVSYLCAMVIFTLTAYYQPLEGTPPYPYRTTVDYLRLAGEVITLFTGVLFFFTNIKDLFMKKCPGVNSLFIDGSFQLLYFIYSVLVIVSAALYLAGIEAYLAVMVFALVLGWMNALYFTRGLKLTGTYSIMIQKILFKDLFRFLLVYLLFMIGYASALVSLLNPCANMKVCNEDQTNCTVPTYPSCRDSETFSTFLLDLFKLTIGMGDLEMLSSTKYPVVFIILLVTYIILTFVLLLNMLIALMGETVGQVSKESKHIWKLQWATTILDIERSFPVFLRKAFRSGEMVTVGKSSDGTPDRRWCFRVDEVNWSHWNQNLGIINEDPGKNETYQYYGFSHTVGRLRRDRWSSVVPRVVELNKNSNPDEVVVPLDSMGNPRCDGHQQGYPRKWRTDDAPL
Entries and their measured IC50 follow.

For orientation, consider the following solved cases.
CC(C)c1cncc(C2(c3nc4c(c(=O)[nH]3)CN(C(=O)C(F)(F)c3cccc(Cl)c3)CCC4)CC2)c1; < 50 nM
CN(C)c1ccc(-c2cccc(C3(c4nc5c(c(=O)[nH]4)CN(C(=O)[C@H](O)c4cccc(C(F)(F)F)c4)CCC5)CC3)c2)cn1; < 50 nM

Pending molecule:
Prompt: Recorded IC50 for O=C([C@H](O)c1cccc(C(F)(F)F)c1)N1CCCc2nc(C3(c4cccc(-c5ccc(CN6CCc7c(Cl)cccc7C6)cc5)c4)CC3)[nH]c(=O)c2C1 , please?
Response: < 50 nM
